System: APEC O78 biofilm formation
Experiment: Biofilm assay (crystal violet)
Type: cell-based, avian pathogenic E. coli (APEC) O78
Settings: Escherichia coli, 48 h, crystal violet OD550 vs DMSO control, read-out: reduction of APEC O78 biofilm formation
Below is a list of entries, each paired with its recorded inhibition at 100 µM value.

- molecule: "O=C(CCN1CCN(c2ccccc2F)CC1)Nc1ccc(Br)cc1 [C7]"
  measured-value: "63 to 66%"
- molecule: "O=[N+]([O-])c1cccc(S(=O)(=O)Nc2ccc(Br)cc2)c1 [C6]"
  measured-value: "63 to 66%"
- molecule: "CS/C(N)=N/N=C/c1cc(C)ccc1O [C4]"
  measured-value: "63 to 66%"
- molecule: "Cc1ccccc1N1CCN(C2CCCN(C(=O)c3ccc(F)c(Cl)c3)C2)CC1 (stereo not drawn) [C2]"
  measured-value: "52 to 58%"
- molecule: "Fc1ccc(CN2CCCN(Cc3nc(-c4ccc(C(F)(F)F)cc4)no3)CC2)cc1 [C9]"
  measured-value: "52 to 58%"
- molecule: "CCc1ccccc1Nc1nc(-c2c(C)nc3ccccn23)cs1 [C8]"
  measured-value: "52 to 58%"
- molecule: "NC(=O)c1ccccc1Nc1cccc(C(F)(F)F)c1 [C3]"
  measured-value: "63 to 66%"
- molecule: "Cc1ccc(CN2CCN(CCCc3ccccc3)CC2)cc1 [C5]"
  measured-value: "63 to 66%"

// moving on: another record for inhibition at 100 µM
Looking for the measured inhibition at 100 µM of OCCC1CN(C2CCN(c3ccccc3)CC2)CCN1CCCc1ccccc1 (stereo not drawn) [C10] , can you help?
52 to 58%
